These entries and their values trace back to patent US20240109868A1.

tested on: vCap Cell; test: vCap cell growth inhibition, CellTiter-Glo, 72 h; format: cell-based; settings: Homo sapiens, VCaP, 72 h, vCap cells, 72 h culture
experimental-endpoint: IC50

compound | assay-target | assay-result
CCN1CCC(c2cc3c(c(N4CCCc5cc(-c6cnn(C)c6)c(C(F)F)cc54)c2)CN(C(N)=O)CCC3)CC1=O (centres unmarked) | vCap Cell | > 1 µM
CC(=O)N1Cc2cc(C3CCN(C(C)=O)C3)cc(N3CCCc4cc(-c5cnn(C)c5)c(C(F)F)cc43)c2C1 (centres unmarked) | vCap Cell | < 1 µM
CC(=O)N1Cc2cc(N3CCSCC3)cc(N3CCCc4cc(-c5cnn(C)c5)c(C(F)F)cc43)c2C1 | vCap Cell | > 1 µM

Here's the next entry for you.
Lab request: please report IC50 under test system vCap Cell for CNC(=O)N1CCc2cc(C3CCN(C(=O)C4CCNC4)CC3)cc(N3CCCc4cc(-c5cnn(C)c5)c(C(F)F)cc43)c2C1 (centres unmarked) > 1 µM

---

target: EP300 (Homo sapiens, UniProt Q09472)
Sequence (Q09472 whole entry): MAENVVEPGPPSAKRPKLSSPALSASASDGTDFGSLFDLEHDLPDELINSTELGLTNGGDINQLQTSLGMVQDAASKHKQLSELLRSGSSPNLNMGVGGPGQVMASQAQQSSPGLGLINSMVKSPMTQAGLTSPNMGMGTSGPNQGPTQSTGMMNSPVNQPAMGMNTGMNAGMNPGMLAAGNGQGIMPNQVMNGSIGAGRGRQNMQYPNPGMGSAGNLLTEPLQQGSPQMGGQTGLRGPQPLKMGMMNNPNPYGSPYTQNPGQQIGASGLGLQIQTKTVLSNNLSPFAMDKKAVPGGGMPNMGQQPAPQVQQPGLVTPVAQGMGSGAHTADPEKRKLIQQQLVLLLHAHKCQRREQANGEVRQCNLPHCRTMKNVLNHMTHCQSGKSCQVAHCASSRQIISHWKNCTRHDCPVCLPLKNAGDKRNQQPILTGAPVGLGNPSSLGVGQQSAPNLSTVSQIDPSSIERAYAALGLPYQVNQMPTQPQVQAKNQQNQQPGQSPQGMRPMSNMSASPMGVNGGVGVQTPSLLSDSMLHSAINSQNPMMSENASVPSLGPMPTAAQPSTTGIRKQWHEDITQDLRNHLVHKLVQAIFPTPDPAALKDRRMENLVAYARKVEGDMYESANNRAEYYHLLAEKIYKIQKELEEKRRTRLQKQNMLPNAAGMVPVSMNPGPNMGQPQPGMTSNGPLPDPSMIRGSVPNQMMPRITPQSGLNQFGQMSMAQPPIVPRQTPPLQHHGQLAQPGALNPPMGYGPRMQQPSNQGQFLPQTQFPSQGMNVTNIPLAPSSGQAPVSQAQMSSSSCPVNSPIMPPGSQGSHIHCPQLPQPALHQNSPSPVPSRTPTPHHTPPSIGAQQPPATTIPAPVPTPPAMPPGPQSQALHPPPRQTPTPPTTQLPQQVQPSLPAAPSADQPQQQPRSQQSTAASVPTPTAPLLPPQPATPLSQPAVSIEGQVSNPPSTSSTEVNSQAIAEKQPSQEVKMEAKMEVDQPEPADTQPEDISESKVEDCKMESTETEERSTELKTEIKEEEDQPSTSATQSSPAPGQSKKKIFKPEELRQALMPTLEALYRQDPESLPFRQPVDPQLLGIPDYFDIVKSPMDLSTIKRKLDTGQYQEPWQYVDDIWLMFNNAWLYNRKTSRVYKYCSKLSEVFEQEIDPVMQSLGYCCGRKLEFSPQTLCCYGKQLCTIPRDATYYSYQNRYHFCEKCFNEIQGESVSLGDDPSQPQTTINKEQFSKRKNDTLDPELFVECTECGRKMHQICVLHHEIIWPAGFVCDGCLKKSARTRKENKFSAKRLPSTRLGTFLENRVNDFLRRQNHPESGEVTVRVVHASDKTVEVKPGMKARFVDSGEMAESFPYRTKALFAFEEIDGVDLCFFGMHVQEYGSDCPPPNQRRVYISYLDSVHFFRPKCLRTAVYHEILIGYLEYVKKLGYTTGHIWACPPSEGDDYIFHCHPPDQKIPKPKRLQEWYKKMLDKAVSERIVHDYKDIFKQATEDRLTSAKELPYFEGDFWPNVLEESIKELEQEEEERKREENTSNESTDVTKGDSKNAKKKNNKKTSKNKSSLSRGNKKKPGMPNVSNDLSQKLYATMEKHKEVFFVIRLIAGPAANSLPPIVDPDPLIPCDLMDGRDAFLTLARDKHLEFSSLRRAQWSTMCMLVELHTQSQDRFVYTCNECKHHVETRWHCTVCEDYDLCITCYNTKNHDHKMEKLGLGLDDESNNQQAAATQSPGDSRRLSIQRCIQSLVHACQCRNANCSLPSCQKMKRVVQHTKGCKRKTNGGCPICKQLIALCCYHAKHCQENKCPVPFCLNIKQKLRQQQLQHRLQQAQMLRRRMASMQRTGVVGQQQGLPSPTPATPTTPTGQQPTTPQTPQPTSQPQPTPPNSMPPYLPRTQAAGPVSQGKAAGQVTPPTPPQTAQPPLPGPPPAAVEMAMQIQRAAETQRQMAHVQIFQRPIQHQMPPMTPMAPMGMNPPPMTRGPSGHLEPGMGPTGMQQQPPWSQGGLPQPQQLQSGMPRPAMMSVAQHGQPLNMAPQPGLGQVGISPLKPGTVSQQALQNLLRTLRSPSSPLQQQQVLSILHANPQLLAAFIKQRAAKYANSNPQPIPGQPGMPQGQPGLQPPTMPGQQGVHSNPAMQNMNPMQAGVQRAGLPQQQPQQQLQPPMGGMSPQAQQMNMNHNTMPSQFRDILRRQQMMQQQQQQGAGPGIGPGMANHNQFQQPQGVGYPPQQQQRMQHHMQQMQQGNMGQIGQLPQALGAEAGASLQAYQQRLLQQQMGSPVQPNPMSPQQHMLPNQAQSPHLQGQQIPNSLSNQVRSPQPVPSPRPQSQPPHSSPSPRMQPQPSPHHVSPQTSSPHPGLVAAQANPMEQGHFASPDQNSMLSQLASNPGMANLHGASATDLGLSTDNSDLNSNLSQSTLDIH
pIC50: −log10 of the molar value.
experimental-endpoint: pIC50

Field: example entries. Status: answers known.
record-smiles | pIC50
CNC(=O)N1Cc2nc(Cl)nc(N3CCCc4cc(-c5cnn(C)c5)c(C(F)F)cc43)c2C1 | < 8.00
CNC(=O)N1CCc2c(c(N3CCCc4cc(-c5cnn(C)c5)c(C(F)F)cc43)nn2C2CCOCC2)C1 | > 8.00

What value of measured pIC50 is listed for COC(=O)N1CCc2cccc(N3CCCc4cc(-c5cnn(C)c5)c(C(F)F)cc43)c2C1 ? > 8.00

---

tested on: vCap Cell; assay: vCap cell growth inhibition, CellTiter-Glo, 72 h; type: cell-based; conditions: Homo sapiens, VCaP, 72 h, vCap cells, 72 h culture
Overview of recorded IC50 for various compounds

Solved cases below.
compound | assay-result
COC(=O)N1Cc2cc(C3CCC(OC)CC3)cc(N3CCCc4cc(-c5cnn(C)c5)c(C(F)F)cc43)c2C1 (stereo not drawn) | > 1000 nM
CNC(=O)N1Cc2cc(-c3cc[nH]c(=O)c3)cc(N3CCCc4cc(-c5cnn(C)c5)c(C(F)F)cc43)c2C1 | > 1000 nM
CSC1CCC(c2cc3c(c(N4CCCc5cc(-c6cnn(C)c6)c(C(F)F)cc54)c2)CN(C(C)=O)C3)CC1 (stereo not drawn) | < 1000 nM
CC(=O)N1Cc2cc(C3CCN(C(=O)C4CN(C)C4)CC3)cc(N3CCCc4cc(-c5cnn(C)c5)c(C(F)F)cc43)c2C1 | > 1000 nM
CS[C@H]1CC[C@@H](c2cc3c(c(N4CCCc5cc(-c6cnn(C)c6)c(C(F)F)cc54)c2)CN(C(C)=O)C3)CC1 | > 1000 nM

Here is another compound to look at.
Given the entry COC1CCC(c2cc3c(c(N4CCCc5cc(-c6cnn(C)c6)c(C(F)F)cc54)c2)CN(C(C)=O)C3)CC1 (stereo not drawn) , what IC50 was observed with vCap Cell? < 1000 nM

---

Measured IC50 by item
tested on: vCap Cell; assay: vCap cell growth inhibition, CellTiter-Glo, 72 h; format: cell-based; settings: Homo sapiens, VCaP, 72 h, vCap cells, 72 h culture

molecule | IC50
CNC(=O)N1Cc2nc(C3CCOCC3)nc(N3CCCc4cc(-c5cnn(C)c5)c(C(F)F)cc43)c2C1 | > 1 µM
CC(=O)N1Cc2cc(C3CCC4(CC3)OCCO4)cc(N3CCCc4cc(-c5cnn(C)c5)c(C(F)F)cc43)c2C1 | < 1 µM
CNC(=O)N1CCc2cc(N3CCSCC3)cc(N3CCCc4cc(-c5cnn(C)c5)c(C(F)F)cc43)c2C1 | > 1 µM

Quick check: IC50 on vCap Cell, item COC(=O)N1CCc2cc(C3CCC(=O)N(CC(C)(C)O)C3)cc(N3CCCc4cc(-c5cnn(C)c5)c(C(F)F)cc43)c2C1 (centres unmarked) ? > 1 µM

Lookup CC(=O)N1Cc2cc(C3CCN(C)C3)cc(N3CCCc4cc(-c5cnn(C)c5)c(C(F)F)cc43)c2C1 (centres unmarked) > 1 µM

// same read-out, input: COCCN1CC(c2cc3c(c(N4CCCc5cc(-c6cnn(C)c6)c(C(F)F)cc54)c2)CN(C(C)=O)C3)CCC1=O (centres unmarked) < 1 µM

// query: CC(=O)N1Cc2cc(C3CCN(CC(F)F)CC3)cc(N3CCCc4cc(-c5cnn(C)c5)c(C(F)F)cc43)c2C1 > 1 µM

Also CNC(=O)N1CCc2cc([C@H]3CCC(=O)N(C)C3)cc(N3CCCc4cc(-c5cnn(C)c5)c(C(F)F)cc43)c2C1 ? < 1 µM

Item: CN1CCC(c2cc3c(c(N4CCCc5cc(-c6cnn(C)c6)c(C(F)F)cc54)c2)CN(C(=O)C2CC2)C3)CC1=O (centres unmarked) > 1 µM

Lookup CC(=O)N1Cc2cc(N3CCN(C)CC3)cc(N3CCCc4cc(-c5cnn(C)c5)c(C(F)F)cc43)c2C1 > 1 µM

And then CC(=O)N1Cc2cc(C3CCN(C(=O)C4CCNC4)CC3)cc(N3CCCc4cc(-c5cnn(C)c5)c(C(F)F)cc43)c2C1 (centres unmarked) , what is it? > 1 µM

Next record, please: CC(=O)N1Cc2cc(C3CNC(=O)OC3)cc(N3CCCc4cc(-c5cnn(C)c5)c(C(F)F)cc43)c2C1 (centres unmarked) > 1 µM

Entry to check: CNC(=O)N1Cc2cc(C3=CC4CCC(C3)N4C(=O)OC(C)(C)C)cc(N3CCCc4cc(-c5cnn(C)c5)c(C(F)F)cc43)c2C1 (centres unmarked) > 1 µM

CNC(=O)N1CCc2cc(C3CCNC(=O)C3)cc(N3CCCc4cc(-c5cnn(C)c5)c(C(F)F)cc43)c2C1 (centres unmarked) , same question. < 1 µM

Consider next the molecule Cn1cc(-c2cc3c(cc2C(F)F)N(c2cccc4c2CN(C(N)=O)CCC4)CCC3)cn1 in the same way. > 1 µM

Next molecule up: CNC(=O)N1CCc2cc(CN3CCC(C(=O)O)CC3)cc(N3CCCc4cc(-c5cnn(C)c5)c(C(F)F)cc43)c2C1 > 1 µM

Also check CNC(=O)N1Cc2cc(C3CC4CCC(C3)N4)cc(N3CCCc4cc(-c5cnn(C)c5)c(C(F)F)cc43)c2C1 (centres unmarked) > 1 µM

Param item: COC1CCC(c2cc3c(c(N4CCCc5cc(-c6cnn(C)c6)c(C(F)F)cc54)c2)CN(C(C)=O)CC3)CC1 (centres unmarked) > 1 µM

Another molecule to look at: CNC(=O)N1CCc2cc(C3CCN(C(=O)C4CC4)CC3)cc(N3CCCc4cc(-c5cnn(C)c5)c(C(F)F)cc43)c2C1 > 1 µM

Okay, and CNC(=O)N1CCc2cc(C3CCN(CC#N)CC3)cc(N3CCCc4cc(-c5cnn(C)c5)c(C(F)F)cc43)c2C1 ? > 1 µM

Now consider CC(=O)N1Cc2cc(C3CCN(S(=O)(=O)C4CC4)CC3)cc(N3CCCc4cc(-c5cnn(C)c5)c(C(F)F)cc43)c2C1 and answer again. < 1 µM

Can you handle Cn1cc(-c2cc3c(cc2C(F)F)N(c2cccc4c2CNC(=O)CC4)CCC3)cn1 next? > 1 µM

---

IC50 values by entry
tested on: vCap Cell; assay: vCap cell growth inhibition, CellTiter-Glo, 72 h; type: cell-based; conditions: Homo sapiens, VCaP, 72 h, vCap cells, 72 h culture

molecule | IC50
Cn1cc(-c2cc3c(cc2C(F)F)N(c2cccc4c2NC(=O)CCC4)CCC3)cn1 | > 1 µM

So what does the record say about IC50 for CC(=O)N1CCc2cccc(N3CCCc4cc(-c5cnn(C)c5)c(C(F)F)cc43)c2C1 ? > 1 µM

---

This listing pairs compounds with measured pIC50.
test system: vCap Cell; assay: vCap cell growth inhibition, CellTiter-Glo, 72 h; assay type: cell-based; conditions: Homo sapiens, VCaP, 72 h, vCap cells, 72 h culture
pIC50: −log10 of the molar value.

Study these solved cases before continuing.
compound | assay-result
CC(=O)N1Cc2cc(C3CC4CCC(C3)N4C)cc(N3CCCc4cc(-c5cnn(C)c5)c(C(F)F)cc43)c2C1 (stereo not shown) | < 6.00
CNC(=O)N1CCc2cc(C3CCN(C)CC3)cc(N3CCCc4cc(-c5cnn(C)c5)c(C(F)F)cc43)c2C1 | < 6.00
CC(=O)N1Cc2cc(C3CCN(C)C(=O)C3)cc(N3CCCc4cc(-c5cnn(C)c5)c(C(F)F)cc43)c2C1 (stereo not shown) | > 6.00
CNC(=O)N1CCc2cc(C3CCN(CC(F)F)CC3)cc(N3CCCc4cc(-c5cnn(C)c5)c(C(F)F)cc43)c2C1 | < 6.00
CNC(=O)N1Cc2cc([C@H]3CC[C@H](O)CC3)cc(N3CCCc4cc(-c5cnn(C)c5)c(C(F)F)cc43)c2C1 | < 6.00
COC(=O)N1C2CCC1CC(c1cc3c(c(N4CCCc5cc(-c6cnn(C)c6)c(C(F)F)cc54)c1)CN(C(C)=O)C3)C2 (stereo not shown) | > 6.00
CC(=O)N1Cc2cc(C3CCN(C)CC3)cc(N3CCCc4cc(-c5cnn(C)c5)c(C(F)F)cc43)c2C1 | < 6.00
CC(=O)N1CCc2cc(-c3cc[nH]c(=O)c3)cc(N3CCCc4cc(-c5cnn(C)c5)c(C(F)F)cc43)c2C1 | < 6.00

GET /values?readout=pIC50&item= CNC(=O)N1CCc2cc(C3CCN(C(=O)C4CCN(C)C4)CC3)cc(N3CCCc4cc(-c5cnn(C)c5)c(C(F)F)cc43)c2C1 (stereo not shown) < 6.00

# iterate: CCN1CCC(c2cc3c(c(N4CCCc5cc(-c6cnn(C)c6)c(C(F)F)cc54)c2)CN(C(=O)OC)CCC3)CC1=O (stereo not shown) < 6.00
